# Tested on: HL-60 (human)
# protocol: Cytotoxicity against human HL-60 cells by MTT assay
Answer each item with its documented pIC50.
One number for each entry, as −log10 of the molar value.

Recorded results for 3 compounds are shown here.
>  <compound>
C=C(C)[C@@H]1C[C@@H](O)[C@](C)(O)[C@H]1/C=C/C(C)=C1\C(=O)C[C@H]2[C@@]3(C)CC[C@H](OC(C)=O)C(C)(C)[C@@H]3CC[C@]12C

>  <tested.target>
HL-60 (human)

>  <pIC50>
4.54

$$$$
>  <compound>
CC(=O)O[C@H]1CC[C@@]2(C)[C@@H](CC[C@]3(C)/C(=C(C)/C=C/[C@H]4[C@H](C(C)(C)O)C[C@@H](O)[C@]4(C)O)C(=O)C[C@@H]23)C1(C)C

>  <tested.target>
HL-60 (human)

>  <pIC50>
4.36

$$$$
>  <compound>
C=C(C)[C@@H]1C[C@@H](OC(C)=O)[C@](C)(OC(C)=O)[C@H]1/C=C/C(C)=C1\C(=O)C[C@H]2[C@@]3(C)CC[C@H](OC(C)=O)C(C)(C)[C@@H]3CC[C@]12C [RHABDASTIN D DIACETATE]

>  <tested.target>
HL-60 (human)

>  <pIC50>
4.96

$$$$

Report value: pIC50, system: HL-60 (human), compound: C=C(C)[C@@H]1C[C@H](O)[C@](C)(O)[C@H]1/C=C/C(C)=C1\C(=O)C[C@H]2[C@@]3(C)CC[C@H](OC(C)=O)C(C)(C)[C@@H]3CC[C@]12C
4.68

These entries and their values trace back to ChEMBL document CHEMBL1221369.
